test system: L-noradrenaline reuptake; assay: Inhibition of L-noradrenaline reuptake in rat cortical synaptosomes (Procedure 2); assay type: biochemical; details: 10^-7 M 3H-L-noradrenaline, 37° C., 4 min, pH 7.4, read-out: NA Uptake IC50
recorded_metric: pIC50
Scale explanation: pIC50 corresponds to minus log10 of a concentration expressed in moles per litre.

## Task Provide only the value of recorded pIC50 for CN(C)CCCN1c2ccccc2CCc2ccccc21 [imipramine, reference compound]
## Result 7.30
